FYI, the data here is from patent US20120022024A1.

- Tested on: staphyloxanthin (STX) biosynthesis in S. aureus
- ASSAY COMMENT: Staphyloxanthin biosynthesis inhibition assay
- Format: cell-based, Staphylococcus aureus
- MEASUREMENT PARAMETERS: Staphylococcus aureus, read-out: IC50(STX)
PROPERTY: IC50 (µM)
Report only the number, with the unit µM understood.

Example results:
TEST SMILES: O=C(CP(=O)(O)O)NCCc1cccc(Oc2ccccc2)c1
IC50, µM: 3
--
TEST SMILES: O=P(O)(O)CP(=O)(O)CCCCc1cccc(Oc2ccccc2)c1
IC50, µM: 0.44
--
TEST SMILES: O=C(CP(=O)(O)O)NCCCc1cccc(Oc2ccc(Cl)cc2)c1
IC50, µM: 0.028
--
TEST SMILES: O=C(CP(=O)(O)O)NCCCCc1cccc(Oc2ccccc2)c1
IC50, µM: 35
--
TEST SMILES: O=C(CS(=O)(=O)O)NCCCc1cccc(Oc2ccccc2)c1
IC50, µM: 15

**Q:** Write IC50 of "O=C(CP(=O)(O)O)NCCCc1cccc(Oc2ccccc2)c1" ; system used: staphyloxanthin (STX) biosynthesis in S. aureus
**A:** 0.008

**Q:** Write IC50 of "O=C(CP(=O)(O)O)NCCCc1cccc(Oc2ccc(Cl)c(Cl)c2)c1" ; system used: staphyloxanthin (STX) biosynthesis in S. aureus
**A:** 0.04

**Q:** Write IC50 of "Cc1ccc(-c2ccc(CCCN(O)C(=O)CP(=O)(O)O)cc2)cc1" ; system used: staphyloxanthin (STX) biosynthesis in S. aureus
**A:** 4.11

* * *

- SYSTEM: human squalene synthase (hSQS) (Homo sapiens)
- Construct: a double truncated protein lacking residues 31 at the N-terminus and 46 at the C-terminus; six-histidine tag (pET-28a) (N); made in house; host or cells: E. coli BL21 (DE3) RP
- ASSAY COMMENT: Human SQS enzyme inhibition assay
- Assay type: biochemical
- MEASUREMENT PARAMETERS: selectivity of compound/selectivity of 1
PROPERTY: relative CrtM/hSQS selectivity
Returns: the value as a bare number; no unit string appended.

Example results:
COMPOUND: CP(=O)([O-])C(CCCc1ccc(-c2ccccc2)cc1)P(=O)([O-])[O-].[K+].[K+].[K+] (stereo not shown)
RECORDED MEASUREMENT: 4.7
//
COMPOUND: O=P([O-])([O-])C(CCCc1ccc(-c2ccc(C(F)(F)F)cc2)cc1)P(=O)([O-])[O-].[K+].[K+].[K+].[K+]
RECORDED MEASUREMENT: 4.8
//
COMPOUND: O=P([O-])([O-])C(Cc1cccc(Oc2ccccc2)c1)S(=O)(=O)[O-].[K+].[K+].[K+] (stereo not shown)
RECORDED MEASUREMENT: 0.8

Moving on to another compound below.
**Q:** Write relative CrtM/hSQS selectivity of O=P([O-])([O-])C(CCc1cccc(Oc2ccccc2)c1)S(=O)(=O)[O-].[K+].[K+].[K+] (stereo not shown) ; system used: human squalene synthase (hSQS) (Homo sapiens)
**A:** 0.4

* * *

- SYSTEM: human squalene synthase (hSQS) (Homo sapiens, UniProt P37268)
- Construct: a double truncated protein lacking residues 31 at the N-terminus and 46 at the C-terminus; six-histidine tag (pET-28a) (N); made in house; host or cells: E. coli BL21 (DE3) RP
- Sequence (P37268 31-370 limits assumed): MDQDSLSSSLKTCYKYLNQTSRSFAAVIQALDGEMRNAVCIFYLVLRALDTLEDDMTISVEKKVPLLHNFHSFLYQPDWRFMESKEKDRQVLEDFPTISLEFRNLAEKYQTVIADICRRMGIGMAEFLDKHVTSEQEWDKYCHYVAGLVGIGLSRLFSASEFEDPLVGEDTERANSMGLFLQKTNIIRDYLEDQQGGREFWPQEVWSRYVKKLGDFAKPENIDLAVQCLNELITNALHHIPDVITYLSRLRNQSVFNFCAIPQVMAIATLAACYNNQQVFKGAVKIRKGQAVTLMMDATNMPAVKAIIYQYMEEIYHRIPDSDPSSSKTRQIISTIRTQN
- ASSAY COMMENT: Human SQS enzyme inhibition assay
- Type: biochemical
- MEASUREMENT PARAMETERS: IC50(hSQS)/IC50(CrtM)
PROPERTY: CrtM/hSQS selectivity
Returns: the value as a bare number; no unit string appended.

Example results:
MOLECULE: O=P([O-])([O-])C(CCc1cccc(Oc2ccccc2)c1)S(=O)(=O)[O-].[K+].[K+].[K+] (stereo not shown)
SYSTEM: human squalene synthase (hSQS) (Homo sapiens, UniProt P37268)
CrtM/hSQS selectivity: 0.0011

MOLECULE: CP(=O)([O-])C(CCCc1ccc(-c2ccccc2)cc1)P(=O)([O-])[O-].[K+].[K+].[K+] (stereo not shown)
SYSTEM: human squalene synthase (hSQS) (Homo sapiens, UniProt P37268)
CrtM/hSQS selectivity: 0.014

MOLECULE: O=P([O-])([O-])C(CCCc1ccc(-c2ccc(C(F)(F)F)cc2)cc1)P(=O)([O-])[O-].[K+].[K+].[K+].[K+]
SYSTEM: human squalene synthase (hSQS) (Homo sapiens, UniProt P37268)
CrtM/hSQS selectivity: 0.014

Moving on to another molecule below.
**Q:** Please give the documented CrtM/hSQS selectivity of O=P([O-])([O-])C(Cc1cccc(Oc2ccccc2)c1)S(=O)(=O)[O-].[K+].[K+].[K+] (stereo not shown)
**A:** 0.0022

* * *

- SYSTEM: S. aureus CrtM (dehydrosqualene synthase) (Staphylococcus aureus)
- Sequence (A9JQL9 whole entry): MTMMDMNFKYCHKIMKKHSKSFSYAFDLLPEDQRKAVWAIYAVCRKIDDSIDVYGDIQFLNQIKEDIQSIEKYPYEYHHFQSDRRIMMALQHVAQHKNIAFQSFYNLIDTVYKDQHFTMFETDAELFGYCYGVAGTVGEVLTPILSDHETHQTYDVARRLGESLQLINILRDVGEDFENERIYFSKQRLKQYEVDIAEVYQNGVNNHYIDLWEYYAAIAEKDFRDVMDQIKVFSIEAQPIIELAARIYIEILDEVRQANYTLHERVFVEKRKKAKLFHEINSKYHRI
- ASSAY COMMENT: CrtM enzyme inhibition assay
- MEASUREMENT PARAMETERS: read-out: CrtM IC50 values; Table 4
Counter-ions that a name gives are not always drawn.
PROPERTY: IC50 (µM)
Report only the number, with the unit µM understood.

**Q:** Please give the documented IC50 of O=P(O)(O)C(CCCc1cccc(Oc2ccc(C(F)(F)F)cc2)c1)S(=O)(=O)O (stereo not shown) [Compound 7, tripotassium salt]
**A:** 7.2

* * *

- SYSTEM: S. aureus CrtM (dehydrosqualene synthase) (Staphylococcus aureus)
- ASSAY COMMENT: CrtM enzyme inhibition assay
Item-by-item account of pIC50
When answering, recall that pIC50 equals minus log10 of the concentration in mol/L, and write that number alone.

Example results:
COMPOUND: CC(C)(C(=O)NCCCc1cccc(Oc2ccccc2)c1)P(=O)(O)O
SYSTEM: S. aureus CrtM (dehydrosqualene synthase) (Staphylococcus aureus)
PROPERTY: pIC50
RECORDED MEASUREMENT: 3.69
//
COMPOUND: O=C(CP(=O)(O)O)N(O)CCCc1cccc(Oc2ccc(Cl)c(Cl)c2)c1
SYSTEM: S. aureus CrtM (dehydrosqualene synthase) (Staphylococcus aureus)
PROPERTY: pIC50
RECORDED MEASUREMENT: 4.17
//
COMPOUND: O=C(CP(=O)(O)O)NCCCc1ccc(-c2ccccc2)cc1
SYSTEM: S. aureus CrtM (dehydrosqualene synthase) (Staphylococcus aureus)
PROPERTY: pIC50
RECORDED MEASUREMENT: 3.78

**Q:** Write pIC50 of "O=P(O)(O)CP(=O)(O)CCCCc1cccc(Oc2ccccc2)c1" ; system used: S. aureus CrtM (dehydrosqualene synthase) (Staphylococcus aureus)
**A:** 4.35

**Q:** Write pIC50 of "O=C(CP(=O)(O)O)NCCCc1cccc(Oc2ccc(Cl)cc2)c1" ; system used: S. aureus CrtM (dehydrosqualene synthase) (Staphylococcus aureus)
**A:** 4.82

* * *

Item-by-item account of pIC50
- SYSTEM: UniProt A9JQL9
- ASSAY COMMENT: CrtM enzyme inhibition assay
When answering, recall that pIC50 equals minus log10 of the concentration in mol/L, and write that number alone.

Example results:
MOLECULE: O=C(NO)C(CCCc1cccc(Oc2ccccc2)c1)P(=O)(O)O (stereo not shown)
RECORDED MEASUREMENT: 3.07
//
MOLECULE: O=C(CP(=O)(O)O)N(O)CCCc1cccc(Oc2ccccc2)c1
RECORDED MEASUREMENT: 4.17
//
MOLECULE: O=P([O-])([O-])C(CCCc1cccc(Oc2ccc(F)cc2)c1)S(=O)(=O)[O-].[K+].[K+].[K+] (stereo not shown) [Compound 5, tripotassium salt]
RECORDED MEASUREMENT: 5.63
//
MOLECULE: O=C(CP(=O)(O)O)NCCc1cccc(Oc2ccccc2)c1
RECORDED MEASUREMENT: 3.49
//
MOLECULE: CN(CCCc1cccc(Oc2ccccc2)c1)C(=O)CP(=O)(O)O
RECORDED MEASUREMENT: 3.71
//
MOLECULE: O=P(O)(O)C(CCCc1ccc(-c2ccccc2)cc1)P(=O)(O)O
RECORDED MEASUREMENT: 6.32
//
MOLECULE: O=C(CP(=O)(O)O)NCCCc1cccc(Oc2ccccc2)c1
RECORDED MEASUREMENT: 5.05
//
MOLECULE: O=C(CP(=O)(O)O)N(O)Cc1cccc(-c2cccc(-c3ccccc3)c2)c1
RECORDED MEASUREMENT: 3.22

Moving on to another molecule below.
**Q:** Write pIC50 of "O=C(CP(=O)(O)O)NCCCc1cccc(Oc2ccc(Cl)c(Cl)c2)c1" ; system used: UniProt A9JQL9
**A:** 5.15
